Target: ligand binding domain of human FXR (Homo sapiens (Human))
Sequence (Q96RI1 262-486): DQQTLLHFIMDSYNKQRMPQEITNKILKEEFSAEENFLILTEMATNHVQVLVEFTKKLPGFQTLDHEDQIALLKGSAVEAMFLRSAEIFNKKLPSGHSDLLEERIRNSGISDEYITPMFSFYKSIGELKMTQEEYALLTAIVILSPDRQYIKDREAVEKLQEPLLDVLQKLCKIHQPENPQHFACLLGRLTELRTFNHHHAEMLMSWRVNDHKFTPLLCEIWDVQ
Assay: FXR ligand binding assay (LanthaScreen TR-FRET, SRC2-2 peptide recruitment)
Conditions: extent of activation relative to GW4064; read-out: % Efficacy
// reported Emax per item
Report only the number, with the unit % understood.

Reference set, count: 6
>>> recorded_value("O=C(O)c1cc([C@@H]2CCOC2)c2nc(N3C[C@@H]4C[C@H]3C[C@H]4OCc3c(-c4c(F)cccc4Cl)noc3C3CC3)sc2c1 [Compound I-266]")
139
>>> recorded_value("O=C(CCc1ccc(N2C[C@@H]3C[C@H]2C[C@H]3OCc2c(-c3c(F)cccc3Cl)noc2C2CC2)c(F)c1)NS(=O)(=O)C1CC1 [Compound I-240]")
162
>>> recorded_value("CCOc1cc(C(=O)O)cc2sc(N3C[C@@H]4C[C@H]3C[C@H]4OCc3c(-c4c(Cl)cccc4Cl)noc3C3CC3)nc12 [Compound I-18]")
135
>>> recorded_value("Cc1cc(C(=O)O)cc2sc(N3C[C@@H]4C[C@H]3C[C@H]4OCc3c(-c4c(F)cccc4Cl)noc3C3CC3)nc12 [Compound I-262]")
144
>>> recorded_value("O=C(NS(=O)(=O)C1CCOCC1)c1ccc(N2C[C@@H]3C[C@H]2C[C@H]3OCc2c(C3CCC4(CC3)CC4)noc2C2CC2)c(F)c1 [Compound I-230]")
150
>>> recorded_value("O=C(O)c1cc(OC2CC2)c2nc(N3C[C@@H]4C[C@H]3C[C@H]4OCc3c(-c4c(Cl)cccc4Cl)noc3C3CC3)sc2c1 [Compound I-259]")
124

Moving on to another compound below.
Query string: Please tell me the measured Emax for O=C(NCCS(=O)(=O)O)c1ccc(N2C(=O)[C@@H]3C[C@H]2C[C@H]3OCc2c(-c3c(Cl)cccc3Cl)noc2C2CC2)cc1 [Compound I-359] ; system: ligand binding domain of human FXR (Homo sapiens (Human)).
Result string: 148

Reference source: patent US10793568B2
